conditions: [M+Na]+; instrument: DT; single field, calibrated with Agilent tune mix (Agilent)
Observation Type: collision cross section (N2) (Å²)

CCCCCCCCCCCCCCCC(=O)O[C@H](CO)COP(=O)(O)OCCN    219.9
CCCC/C=C\CCCCCCCC(=O)OC[C@H](COP(=O)(O)OC[C@@H](O)CO)OC(=O)CCCCCCCCC/C=C\CCCCCCCCCC    286
CCCCCCCCCCCCC=CC[C@@H](O)[C@H](CO[C@@H]1O[C@H](CO)[C@@H](O)C(O)C1O)NC(=O)CCCCCCCCCCCCCCCCCCCCC (stereo partly drawn)    296.5
CC/C=C\C/C=C\C/C=C\C/C=C\CCCCC(=O)OC[C@H](COP(=O)(O)O[C@H]1C(O)C(O)C(O)[C@@H](O)C1O)OC(=O)CCCCCCCCC/C=C\CCCCCCCCCC (stereo partly drawn)    305.8
CCCCCCCCCCCCC=CC[C@@H](O)[C@H](COP(=O)([O-])OCC[N+](C)(C)C)NC(=O)CCCCCCCCCCCCCCCC    285.6
CCCCC/C=C\C/C=C\C/C=C\CCCCCCC(=O)O[C@H](COC(=O)CCCCCCC/C=C\CCCCCCCC)COP(=O)(O)OC[C@H](N)C(=O)O    290.6
CCCCC/C=C\C/C=C\CCCCCCCC(=O)OC[C@H](COP(=O)([O-])OCC[N+](C)(C)C)OC(=O)CCCCCCCCC/C=C\CCCCCC    291.9
CCCCC/C=C\C/C=C\C/C=C\CCCCCCC(=O)O[C@H](COC(=O)CCCCCCC/C=C\CCCCCC)COP(=O)(O)OCCN    281.2
CCCCC/C=C\C/C=C\C/C=C\C/C=C\CCCCCC(=O)O[C@H](COC(=O)CCCCCCC/C=C\CCCCCCCC)COP(=O)([O-])OCC[N+](C)(C)C    302
CCCCCCCCCCCCC=CC[C@@H](O)[C@H](CO)NC(=O)CCCCCCCCCCCCCCCCCCC    273.1
CCCCCCCCCCCCC=CC[C@@H](O)[C@H](CO)NC(=O)CCCCCCCCCCCCCCCCCCCCCC    281.6
CCCCCC/C=C\CCCCCCCCCC(=O)OC[C@H](COP(=O)([O-])OCC[N+](C)(C)C)OC(=O)CCCCCCCCCCCCC    282.6
CC/C=C\C/C=C\C/C=C\CCCCCCCC(=O)O[C@H](COC(=O)CCCCCCCCC/C=C\CCCCCCCC)COP(=O)(O)OC[C@@H](O)CO    290.2
CCCCCC/C=C\CCCCCCCCCC(=O)O[C@H](COC(=O)CCCCCCC/C=C\CCCCCCCC)COP(=O)([O-])OCC[N+](C)(C)C    295.1
CC/C=C\C/C=C\C/C=C\C/C=C\CCCCC(=O)OC[C@H](COP(=O)(O)OCCN)OC(=O)CCCCCCCCC/C=C\C/C=C\CCCCC    283.6
CCCCCCCCCCCCC=CC[C@@H](O)[C@H](COP(=O)([O-])OCC[N+](C)(C)C)NC(=O)CC=CCCCCCCCCCCCCCCCCCCCC    304.4
CCCC/C=C\CCCCCCCC(=O)OC[C@H](COP(=O)(O)O[C@H]1C(O)C(O)C(O)[C@@H](O)C1O)OC(=O)CCCCCCCCC/C=C\CCCCCCCCCC (stereo partly drawn)    297.6
CC/C=C\C/C=C\C/C=C\C/C=C\CCCCC(=O)OC[C@H](COP(=O)(O)OCCN)OC(=O)CCCCC/C=C\C/C=C\C/C=C\C/C=C\CCCCC    287.3
